Where do the numbers come from? From PubChem BioAssay (NCI).

Below: a set of entries, each annotated with reported growth inhibition.
Test: NCI Yeast Anticancer Drug Screen. Data for the mlh1 rad18 strain (AID 175)
Conditions: S. cerevisiae mlh1 rad18 strain growth inhibition; at 50.0 µM; stronger effect = higher value
Compounds without any hit were thinned out: in the full panel of roughly 79,000, 15% have a hit.
Please give a number only; it is taken to be in %.

>>> print(df.to_string())
                                 compound       measure_name  readout_number
0                   COc1cc(CCl)cc(OC)c1OC  growth inhibition           -11.8
1                         Cc1ccc(F)c(N)c1  growth inhibition            27.9
2              C=C(CN(C)C)C(=O)c1ccccc1OC  growth inhibition            18.8
3              Cc1sc2nc(N(C)C)oc(=O)c2c1C  growth inhibition            50.5
4  O=C(Nc1nccs1)Nc1ccc(Cl)cc1[N+](=O)[O-]  growth inhibition            34.4

## Input Sample CCNc1ncnc2c1cnn2C1CCCCC1 — what was its growth inhibition?
## Output -2.5

## Input Sample O=C(/C=C/c1ccc(O)cc1)OCC1OC(Oc2cc(O)c3c(c2)OC(c2ccc(O)cc2)CC3=O)C(O)C(O)C1O (stereo not given) — what was its growth inhibition?
## Output 5.1

## Input Sample Nc1[nH]n(-c2ccccc2)c(=O)c1/C=N/C(=S)N=Nc1c(O)[nH]c2ccccc12 — what was its growth inhibition?
## Output 24.8

## Input Sample CC(C)(N)COCOCC(C)(C)N — what was its growth inhibition?
## Output 0

## Input Sample Cc1c(NC(=O)Nc2c(Cl)cccc2Cl)c(=O)n(-c2ccccc2)n1C — what was its growth inhibition?
## Output -39.9

## Input Sample O=c1nc(OCCO)c([N+](=O)[O-])c(C(Cl)(Cl)Cl)[nH]1 — what was its growth inhibition?
## Output 92.3

## Input Sample CC(=O)c1c2c(cc3c1CC1(C3)Cc3cc4c(c(C(C)=O)c3C1)CCC4)CCC2 — what was its growth inhibition?
## Output -30.6

* * *

Assay: NCI Yeast Anticancer Drug Screen. Data for the sgs1 mgt1 strain (AID 161);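 also: 0% = growth of cultures given vehicle only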
Settings: S. cerevisiae sgs1 mgt1 strain, at 50.0 µM, stronger effect = higher value
About 79,000 compounds went through this panel and 15% of them were active in at least one assay; those are over-represented in the sample as a whole.
Below: a set of entries, each annotated with reported growth inhibition.
Please give a number only; it is taken to be in %.

                                   compound       measure_name  readout_unit  readout_number
0  CC(C)(C)c1ccc(C(=O)O)c(O)c1.CC(C)(C)c1ccc(C(=O)O)c(O)c1.[Cu]  growth inhibition             %            43.4
1  Cc1ccc2c(c1)N=C(Nc1ccccc1)N=S2(C)=O (stereo unspecified)  growth inhibition             %            0.45
2                             BrCCC1CCCCCC1  growth inhibition             %            5.85
3  CC(=O)OCC(C)Cc1ccc(C(C)(C)C)cc1 (stereo unspecified)  growth inhibition             %             0.7

## Input Sample CC(C)(N)COCOCC(C)(C)N — what was its growth inhibition?
## Output -1.15

## Input Sample O=c1[nH]c(=O)n(C2OC(COP(=O)(O)OP(=O)(O)OC3OC(CO)C(O)C(O)C3O)C(O)C2O)cc1F (stereo unspecified) — what was its growth inhibition?
## Output 8.8

## Input Sample O=C1Nc2ccccc2C1O (stereo unspecified) — what was its growth inhibition?
## Output -37.5

## Input Sample CCC(=O)C(OC(C)=O)C(OC(C)=O)C(OC(C)=O)C(COC(C)=O)OC(C)=O (stereo unspecified) — what was its growth inhibition?
## Output -8.1

## Input Sample Fc1ccc(N2CSC(=S)N(c3ccc(F)cc3F)C2)c(F)c1 — what was its growth inhibition?
## Output 31.5

## Input Sample COc1cc(=O)n2c3ccccc3n(C)c2c1C#N — what was its growth inhibition?
## Output -0.95

## Input Sample C/C=C/C(O)CC (stereo unspecified) — what was its growth inhibition?
## Output 3.2

## Input Sample CCCCC(CC)(SC(CC)C(N)=O)C(N)=O (stereo unspecified) — what was its growth inhibition?
## Output 16.9
